- System: Danio rerio larvae (5 dpf)
- METHOD_SUMMARY: difference in activity during first hour vs DMSO (percentage points); higher = more activity than DMSO
- CONDITIONS_USED: 10 µM; exposure time 6 h
Structures can show the parent of a compound that is named as a salt.
// classify(record): look up difference in activity during first hour in ranges lo = under 2, med = from 2 up to 10, hi = 10 and over

// return the class label for Nc1c(CC(=O)O)cccc1C(=O)c1ccc(Br)cc1 [Bromfenac (sodium salt)] med

COc1ccc2c(O[C@@H]3C[C@H]4C(=O)N[C@]5(C(=O)NS(=O)(=O)C6CC6)C[C@H]5/C=C\CCCCN(C)C(=O)[C@@H]4C3)cc(-c3nc(C(C)C)cs3)nc2c1C [Simeprevir (sodium salt)] , same question. hi

// next record CC(=O)N(O)CCCCCNC(=O)CCC(=O)N(O)CCCCCNC(=O)CCC(=O)N(O)CCCCCN [Deferoxamine (mesylate)] hi

// repeat for CC(=O)OCC(=O)[C@@]1(O)CC[C@H]2[C@@H]3CCC4=CC(=O)CC[C@]4(C)[C@H]3C(=O)C[C@@]21C [Cortisone Acetate] and report lo

Entry C[N+]1(C)[C@@H]2CC[C@H]1C[C@@H](OC(=O)C(O)c1ccccc1)C2 (some centres not stated) [Methylhomatropine (bromide)] please med

Entry to check: C[C@@](Cc1ccc(O)c(O)c1)(NN)C(=O)O [Carbidopa (hydrate)] med

Likewise for CNCCC=C1c2ccccc2CCc2ccccc21 [Nortriptyline (hydrochloride)] ? lo

Also check O=C1c2c(O)ccc(O)c2C(=O)c2c(NCCNCCO)ccc(NCCNCCO)c21 [Mitoxantrone (hydrochloride)] lo

Input `CS(=O)(=O)c1cccc(C[C@H](NC(=O)c2c(Cl)cc3c(c2Cl)CCN(C(=O)c2ccc4ccoc4c2)C3)C(=O)O)c1` hi

What would you report for `CO[C@H]1/C=C/O[C@@]2(C)Oc3c(C)c(O)c4c(c3C2=O)C2=NC3(CCN(CC(C)C)CC3)NC2=C(NC(=O)/C(C)=C\C=C\[C@H](C)[C@H](O)[C@@H](C)[C@@H](O)[C@@H](C)[C@H](OC(C)=O)[C@@H]1C)C4=O` ? med

Also COC(=O)CCc1ccc(OCC(O)CNC(C)C)cc1 (configuration not stated) [Esmolol (hydrochloride)] ? med

// same read-out, input: CN(CCOc1ccc(CC2SC(=O)NC2=O)cc1)c1ccccn1 (configuration not stated) [Rosiglitazone] hi

Also `Cn1c(=O)c2c(ncn2C)n(C)c1=O` , if possible. med

And the next one, `Nc1nc(N)c2nc(-c3ccccc3)c(N)nc2n1` ? hi

Could you do the same for CCNC(=O)CCC/C=C\C[C@@H]1[C@@H](/C=C/[C@@H](O)CCc2ccccc2)[C@H](O)C[C@@H]1O [17-phenyl trinor Prostaglandin F2α ethyl amide] , please? hi

Can you check S=c1nc[nH]c2nc[nH]c12 [6-Mercaptopurine (hydrate)] next? lo

Nc1nc(=O)c2c([nH]1)NC[C@H](CNc1ccc(C(=O)N[C@@H](CCC(=O)O)C(=O)O)cc1)N2C=O [L-Folinic Acid (calcium salt)] , same question. lo

* * *

- Test system: Danio rerio larvae (5 dpf)
- METHOD_SUMMARY: difference in activity during first hour vs DMSO (percentage points); higher = more activity than DMSO
- CONDITIONS_USED: 10 µM; exposure time 6 h
Counter-ions that a name gives are not always drawn.
Use True when the recorded difference in activity during first hour is no lower than -2; use False when it is lower.

Textbook exercise: given the entry CC[C@@H]1C(=O)OC[C@@H]1Cc1cncn1C [(+)-Pilocarpine (hydrochloride)] , state whether its difference in activity during first hour is greater than or equal to -2. False

Request: CN(C)CCOC(c1ccccc1)c1ccccc1 [Diphenhydramine (hydrochloride)] False

Now consider COc1ccc(OC)c(C(O)CNC(=O)CN)c1 (stereo unspecified) [Midodrine (hydrochloride)] and answer again. True

Note, next up: CN1CCC(=C2c3ccccc3CCn3c(C=O)cnc32)CC1 [Alcaftadine] True

Let us now turn to CN1CCN2c3ncccc3Cc3ccccc3C2C1 (stereo unspecified) [Mirtazapine] True

Proceed to CCCCNc1ccc(C(=O)OCCOCCOCCOCCOCCOCCOCCOCCOCCOC)cc1 [Benzonatate] True
